procedure_summary: growth inhibitors of tim10-1 mutant yeast, primary screen, luminescence, uHTS (AID 463190);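 note: mutant grown at 25 °C; 0% = DMSO wells with yeast and 100% = wells holding no yeast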
test_context: S. cerevisiae tim10-1 ts strain growth, BacTiter-Glo, 24 h; at 20 µM; active compounds read high
Hit rate of the full screen: of about 330,000 compounds, about 7,300 (2.2%) were called active. For the sample, actives were picked, then their nearest neighbours and some compounds at random.
assay_endpoint: inhibition

Query string: Quick check: inhibition of CCOC(=O)c1cc(C#N)c(N2CCCCC2)nc1-c1ccccc1 ?
Result string: -4.08% (inactive)

Query string: Quick check: inhibition of CC1=C(C(N)=O)C(c2ccc(Br)cc2)n2ncnc2N1 (configuration not stated) ?
Result string: 10.7% (inactive)

Query string: Quick check: inhibition of Cc1ccc2nc(N(CCN(C)C)C(=O)C3=COCCO3)sc2c1 ?
Result string: 44.8% (active)

Query string: Quick check: inhibition of CN(C)CCN(C(=O)CN1C(=O)c2ccccc2C1=O)c1nc2cc3c(cc2s1)OCCO3 ?
Result string: -13.3% (inactive)

Query string: Quick check: inhibition of CCOc1cc(/C=N/NC(=O)c2cc(-c3ccccc3)nc3ccccc23)ccc1O ?
Result string: 11.6% (inactive)

Query string: Quick check: inhibition of Cc1cc(C)nc(SCC(=O)c2ccc(Cl)cc2)n1 ?
Result string: 7.83% (inactive)

Query string: Quick check: inhibition of CN(Cc1ccccc1)CC(O)COc1ccc(CNCc2cc3ccccc3s2)cc1 (configuration not stated) ?
Result string: -10.1% (inactive)

# credit: PubChem BioAssay AID463190
